Target: Cellular tumor antigen p53 (Homo sapiens)
Assay: ATG_p53_CIS: Attagene CIS-FACTORIAL HepG2 Assay for human p53 Transcription Factor (AID 2282994)
Settings: HepG2 p53 cis-element reporter, Attagene mRNA; actives raise or lower the signal
Calls of active or inactive are those of the source. The calls were made as follows: active = hit-call score of the fitted dose curve at least 0.9, where 1 is the maximum; inactive = score below 0.9.
Parameter call: string, one of Y for active, N for inactive

*Q* Which outcome was entered for the compound C1CC2OC2CC1C1CO1 (stereo not given) in this test?
*A* N

*Q* Try this compound too: Cc1ccccc1[N+](=O)[O-]
*A* N

*Q* Try this compound too: CO/C=C(/C(=O)OC)c1ccccc1COc1cccc(C(F)(F)F)n1
*A* N

*Q* Try this compound too: CCCCCCCCCC[N+](C)(C)CCCCCCCCCC
*A* Y

*Q* Try this compound too: CCOC(=O)C(O)(c1ccc(Cl)cc1)c1ccc(Cl)cc1
*A* N

*Q* Try this compound too: ClC1=C(Cl)[C@]2(Cl)[C@@H]3[C@H]4C[C@H]([C@@H]5O[C@H]45)[C@@H]3[C@@]1(Cl)C2(Cl)Cl
*A* N

*Q* Try this compound too: Cc1cccc(C)c1N
*A* N

*Q* Try this compound too: ClC(Cl)=C(c1ccc(Cl)cc1)c1ccc(Cl)cc1
*A* N

*Q* Try this compound too: CC(C)C(=O)OCC(C)(C)C(OC(=O)C(C)C)C(C)C (stereo not given)
*A* N

*Q* Try this compound too: Clc1ccc(C(c2ccccc2Cl)C(Cl)(Cl)Cl)cc1 (stereo not given)
*A* N

*Q* Try this compound too: CCOP(=S)(OCC)SCSC(C)(C)C
*A* N

*Q* Try this compound too: COc1ccc(O)c(C(C)(C)C)c1
*A* N

*Q* Try this compound too: C=CC(=O)NCNC(=O)C=C
*A* N

*Q* Try this compound too: O=C(NC(=O)c1cc(F)c(F)cc1Cl)Nc1cc(F)ccc1N1CCC(C(=O)O)CC1
*A* N

*Q* Try this compound too: O=S(=O)(O)C(F)(F)C(F)(F)C(F)(F)C(F)(F)C(F)(F)C(F)(F)F
*A* N

*Q* Try this compound too: Cc1ccccc1O
*A* N

*Q* Try this compound too: Oc1ccc(Cl)cc1Cl
*A* N

*Q* Try this compound too: Clc1ccc(C(Cl)(Cl)Cl)cc1
*A* N

*Q* Try this compound too: O=S(=O)(O)C(F)(F)C(F)(F)C(F)(F)C(F)(F)F
*A* N
